The reported numbers originate from PubChem BioAssay (NCI).

Test system: COLO 205 colon
assay-comment: NCI-60 one-dose screen, 48 h (100 = growth as untreated, 0 = no growth, -100 = all killed)
settings: 10 µM unless noted
Compounds without any hit were thinned out: in the full panel of roughly 83,000, 20% have a hit.
endpoint: growth (%)
Just the number in %, nothing appended.

Below, each entry is followed by its recorded growth result.
{"compound": "CC12CCC3C(C=CC4=C(N)C(=O)CCC43C)C1CCC2=O (stereo unspecified)", "unit-symbol": "%", "growth": 121}
{"compound": "C/C(Cc1ccc(Cl)cc1)=C(\\c1ccc(OCCN2CCOCC2)cc1)c1ccc(OC(=O)Cc2ccccc2)cc1", "unit-symbol": "%", "growth": 99.8}
{"compound": "COc1ccc2c(c1)c(C1(O)CC(CSC#N)OC1=O)cn2C(=O)c1ccc(Cl)cc1 (stereo unspecified)", "unit-symbol": "%", "growth": 127}

Prompt line: # lookup: growth of COc1ccc2c(c1)c(-c1nc(-c3c[nH]c4ncccc34)cs1)cn2CCN1CCOCC1
Response line: 61.6

Prompt line: # lookup: growth of C[C@]12CC[C@H]3[C@@H](CC[C@]4(O)C[C@@H](O[C@@H]5O[C@H](CO)[C@@H](O[C@@H]6OC[C@@H](O)[C@H](O)[C@H]6O)[C@H](O)[C@H]5O)CC[C@]34C=O)[C@@]1(O)CC[C@@H]2C1=CC(=O)OC1
Response line: 17.8

Prompt line: # lookup: growth of O=[As](O)(O)c1ccccc1[As](=O)(O)O
Response line: 111

Prompt line: # lookup: growth of O=C(O)C(Cl)(Cl)C(F)(F)F
Response line: 124

Prompt line: # lookup: growth of CCOC(=O)[C@@H](C)C[C@H](Cc1ccccc1)NC(=O)c1csc([C@@H](C[C@H](C(C)C)N(C)C(=O)CNC(=O)[C@H]2CCCCN2C)OC(C)=O)n1
Response line: -11.6

* * *

# growth per entry
System: OVCAR-5 ovarian
assay-comment: NCI-60 one-dose screen, 48 h (100 = growth as untreated, 0 = no growth, -100 = all killed)
settings: 10 µM unless noted
About 83,000 compounds went through this panel and 20% of them were active in at least one assay; those are over-represented in the sample as a whole.
Just the number in %, nothing appended.

{"molecule": "O=C1CCC2(O)[C@@H]3Cc4ccc(O)c5c4[C@]2(CCN3Cc2ccoc2)C1O5 (some centres undefined)", "growth (%)": 98.7}
{"molecule": "CC(CO)NC1CCCCC1 (centres undefined)", "growth (%)": 102}
{"molecule": "C[C@@]1(CCCCCCCCCc2ccc(O)cc2)C[C@]2(C)OC(=O)C[C@@H]2OO1", "growth (%)": 94.7}

Prompt line: # lookup: growth of CCC(CC)CC1(C)CC2(C)CCOC2OO1 (centres undefined)
Response line: 113

Prompt line: # lookup: growth of c1cnc2[nH]cc(-c3csc(-c4cn(CCCCN5CCOCC5)c5ccccc45)n3)c2c1
Response line: 72.5

Prompt line: # lookup: growth of COC(=O)[C@@H](C)C[C@H](Cc1ccccc1)NC(=O)c1csc([C@@H](C[C@H](C(C)C)N(C)C(=O)[C@@H](NC(=O)[C@H]2CCCN2C)C2CC2)OC(C)=O)n1
Response line: 46.8

Prompt line: # lookup: growth of COc1ccc(/C(C)=C(\c2ccc(OCCN3CCOCC3)cc2)c2ccc(OC(=O)Cc3ccccc3)cc2)cc1
Response line: 104

Prompt line: # lookup: growth of O=C(N/N=C\c1ccc(N(CCCl)CCCl)cc1)c1cccc([N+](=O)[O-])c1
Response line: 109

Prompt line: # lookup: growth of CC(C)CCC(=O)O[C@H]1CC[C@H]2[C@@H]3CCC4=CC(=O)CC[C@]4(C)[C@H]3CC[C@]12C
Response line: 93
